Conditions: in 1-methoxy-2-propanol, 282.8 K
OBSERVABLE: solubility (mole fraction)
Write the value as a bare number.

Kindly note the recorded solubility (mole fraction) for "COc1ccc(OC)c(N)c1" , which is 0.0306

* * *

Conditions: in 1-methoxy-2-propanol, 318.8 K
OBSERVABLE: solubility (mole fraction)
Form rule: numeric answer, no unit written next to it.

// "COc1ccc(OC)c(N)c1" : solubility (mole fraction) value = 0.281

* * *

Conditions: in 1-methoxy-2-propanol, 282.2 K
OBSERVABLE: solubility (mole fraction)
I'd appreciate a reply containing only the number, no unit.

# solubility (mole fraction) of "COc1cc([N+](=O)[O-])c(OC)cc1Cl" = 0.00313
